Source listed as ChEMBL document CHEMBL1145305.

target: Beta-secretase 1 (Homo sapiens)
Sequence (P56817 whole entry): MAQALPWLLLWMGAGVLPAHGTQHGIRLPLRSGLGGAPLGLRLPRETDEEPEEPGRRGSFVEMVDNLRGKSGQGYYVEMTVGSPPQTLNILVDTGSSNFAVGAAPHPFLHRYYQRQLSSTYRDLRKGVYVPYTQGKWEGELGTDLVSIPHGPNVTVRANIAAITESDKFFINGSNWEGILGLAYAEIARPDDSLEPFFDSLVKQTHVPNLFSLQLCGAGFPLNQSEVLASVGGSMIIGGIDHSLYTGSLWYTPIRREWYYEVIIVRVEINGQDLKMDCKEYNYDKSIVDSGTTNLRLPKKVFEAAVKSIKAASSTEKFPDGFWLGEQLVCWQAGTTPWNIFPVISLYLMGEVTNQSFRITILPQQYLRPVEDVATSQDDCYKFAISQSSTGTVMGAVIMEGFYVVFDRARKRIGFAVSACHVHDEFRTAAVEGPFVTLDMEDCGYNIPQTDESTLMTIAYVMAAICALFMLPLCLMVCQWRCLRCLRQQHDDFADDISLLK
test: Inhibition of human recombinant BACE1 at 2 uM
measured.attribute: inhibition (%)

Here is how some compounds turned out for inhibition.
Prompt: Report inhibition for CC(C)C[C@H](NC(=O)[C@@H](NC(=O)[C@@H](N)CNC(=O)c1nc(O)nc(O)c1I)C(C)C)C(=O)N[C@@H](Cc1ccccc1)[C@@H](O)C(=O)Nc1cccc(C(=O)O)c1 please.
Completion: 99

Prompt: Report inhibition for CC(C)[C@H](NC(=O)[C@@H](N)CNC(=O)c1cc(O)ccc1O)C(=O)N[C@@H](CC1CCCCC1)C(=O)N[C@@H](Cc1ccccc1)[C@@H](O)C(=O)Nc1cccc(-c2nn[nH]n2)c1 please.
Completion: 99

Prompt: Report inhibition for CC(C)C[C@H](NC(=O)[C@@H](NC(=O)[C@@H](N)CNC(=O)c1cc(O)ccc1O)C(C)C)C(=O)N[C@@H](Cc1ccccc1)[C@@H](O)C(=O)Nc1cccc(-c2nn[nH]n2)c1 please.
Completion: 99

Prompt: Report inhibition for CC(C)C[C@H](NC(=O)[C@@H](NC(=O)[C@@H](N)CNC(=O)c1cccc(O)c1O)C(C)C)C(=O)N[C@@H](Cc1ccccc1)[C@@H](O)C(=O)Nc1cccc(C(=O)O)c1 please.
Completion: 89

Prompt: Report inhibition for CC(C)C[C@H](NC(=O)[C@@H](NC(=O)[C@@H](N)CNC(=O)c1ccc(O)cc1O)C(C)C)C(=O)N[C@@H](Cc1ccccc1)[C@@H](O)C(=O)Nc1cccc(C(=O)O)c1 please.
Completion: 86

Prompt: Report inhibition for CC(C)C[C@H](NC(=O)[C@@H](NC(=O)[C@@H](N)CNC(=O)c1cc[nH]c1)C(C)C)C(=O)N[C@@H](Cc1ccccc1)[C@@H](O)C(=O)Nc1cccc(C(=O)O)c1 please.
Completion: 69

[a] CC(C)C[C@H](NC(=O)[C@@H](NC(=O)[C@@H](N)CNC(=O)c1cc(O)cc(O)c1)C(C)C)C(=O)N[C@@H](Cc1ccccc1)[C@@H](O)C(=O)Nc1cccc(C(=O)O)c1
[b] CC(C)C[C@H](NC(=O)[C@@H](NC(=O)[C@@H](N)CNC(=O)[C@@H]1CC(=O)NC(=O)N1)C(C)C)C(=O)N[C@@H](Cc1ccccc1)[C@@H](O)C(=O)Nc1cccc(C(=O)O)c1
Prompt: Which of the two items, a and b , has the greater recorded inhibition? Write the label of whichever entry you select.
Completion: a
(a: 94%, b: 40%)
